List of melting point values.

- molecule: "Nc1ncnc2c1ncn2Cc1oc2ccc(Br)cc2c(=O)c1-c1ccc(F)cc1"
  melting point: "238 to 242 °C"
- molecule: "O=C(C#CCO)c1ccc(F)cc1"
  melting point: "63 °C"

Quick check: melting point of CCOC(=O)C1=C(C)N(C(C)=O)C(c2csc(C)n2)=NC1C1(F)C=CC=CC1Cl (centres undefined) ?
164 to 166 °C

Can you check CCCCc1nn(-c2cc(N)ccc2Cl)c(=O)n1Cc1ccc(-c2ccccc2S(=O)(=O)NC(=O)OC(C)(C)C)cc1F next?
208 to 210 °C

Can you check CN(C)Cc1ccc(CSCCN=CNS(=O)(=O)c2ccccc2)o1 next?
83 to 85 °C

Can you check COc1cccc(-c2ccc3ccc(N)nc3n2)c1 next?
270 to 275 °C

Can you check Cc1ccccc1-c1c(CS)n(C)c(=O)c2ccccc12 next?
184 to 186 °C

Can you check CC1(C)C(=O)N(c2ccc([N+](=O)[O-])c(C(F)(F)F)c2)C(=O)N1CCCCCCCN1C(=O)N(c2ccc([N+](=O)[O-])c(C(F)(F)F)c2)C(=O)C1(C)C next?
137 to 138 °C

Can you check CN(c1cccc(C=C2c3ccccc3CCc3ccccc32)c1)S(C)(=O)=O next?
124 °C
